B1: Osa-1-4 twister ribozyme (parent)
chain: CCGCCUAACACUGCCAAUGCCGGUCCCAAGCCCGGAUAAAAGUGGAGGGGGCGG

# Variants of: B1
# Assay: self-cleavage, relative activity (ratio to wild type); higher = more cleavage; co-transcriptional
Readout Kind: self-cleavage
Form field (numeric): enter value without unit.

Request: Look at this variant and give its reported self-cleavage. A8U G13U
Result: 0.02

Request: Quick one: self-cleavage for A17G A40U ?
Result: 0.83

Request: Requested field: self-cleavage. Item: A41G C11U
Result: 0.34

Request: Consider the variant shown here: C52G C9U What is its recorded self-cleavage?
Result: 0.85

Request: Look at this variant and give its reported self-cleavage. A16G G50U
Result: 1.02

Request: Field request: self-cleavage | item: G42U U43G
Result: 0.09

Request: Looking for the measured self-cleavage of C9A G34U , can you help?
Result: 0.11

Request: Value lookup for self-cleavage; key = G45A U18C
Result: 0.29

Request: Request the reported self-cleavage associated with A41C C27U
Result: 0.12

Request: Please give the measured self-cleavage for this variant: A29U U18G
Result: 0.25

Request: Requested read-out: self-cleavage. Entry: A7C G54C
Result: 0.05

Request: Form field: reported self-cleavage of C15U G50C
Result: 0.23
